Reference for the values: PubChem BioAssay (NCATS)

Tested on: CP305
Assay remarks: qHTS profiling for inhibitors of Plasmodium falciparum proliferation (AID 504749); also: nearly all actives have a fitted effect of over 60% in size
Condition: P. falciparum in erythrocytes, SYBR Green DNA, 72 h; series mostly up to 28.7 µM
Results filed as inconclusive are left out. Calls of active or inactive are those of the source. Calls follow the shape of the dose curve; as a rule, active = well fitted inhibition curve with a large enough effect; inconclusive = small, poorly fitted or top-dose-only effect; inactive = flat fitted curve, though single readings scatter.
Just give me one of these, please: 1 for active, 0 for inactive

Look up the recorded call for `CN(C)CC/C=C1\c2ccccc2Sc2ccc(Cl)cc21` in this test.
0

Now the molecule `O=C1c2ccccc2C(=O)C1c1ccccc1`
0

Now the molecule `O=C1[C@H]2CCCC[C@H]2C(=O)N1CCCCN1CCN(c2nsc3ccccc23)CC1`
0

Now the molecule `Cc1cc(N)c2cc(NC(=O)Nc3ccc4nc(C)cc(N)c4c3)ccc2n1`
1

Now the molecule `CCCCCCCCCCCCCCCC[N+](C)(C)CCN(Cc1ccc(OC)cc1)c1ncccn1`
0

Now the molecule `CN(C(=O)CN(CCO)CC(=O)N(C)C(C)(C)Cc1ccccc1)C(C)(C)Cc1ccccc1`
0

Now the molecule `CCC(=O)c1c(O)cc(O)cc1O`
0

Now the molecule `COc1cc(OC)cc(OC)c1`
0

Now the molecule CCC(C(=O)OCCN(CC)CC)c1ccccc1 (stereo not drawn)
0

Now the molecule `CC(C)(CO)[C@@H](O)C(=O)NCCCO`
0

Now the molecule `C[C@@H]1C[C@H]2[C@@H]3CCC4=CC(=O)C=C[C@]4(C)[C@@]3(F)[C@@H](O)C[C@]2(C)[C@H]1C(=O)CO`
0

Now the molecule `CC(C)(C)CC(C)(C)c1ccc(OCCOCC[N+](C)(C)Cc2ccccc2)cc1`
1

Now the molecule `COc1ccc(C2C(=O)c3ccccc3C2=O)cc1`
0

Now the molecule `COc1c(C)c2c(c(O)c1C/C=C(\C)CCC(=O)O)C(=O)OC2`
1

Now the molecule `C[C@@H](CN(C)C)CN1c2ccccc2Sc2ccccc21`
0

Now the molecule `CN1CCC[C@@H]1c1cccnc1`
0

Now the molecule `CCN(CC)C(=O)N1CCN(C)CC1`
0

Now the molecule `CC[N+](CC)(CCNC(=O)C(=O)NCC[N+](CC)(CC)Cc1ccccc1Cl)Cc1ccccc1Cl`
1

Now the molecule `O=C(COc1ccc(Cl)cc1)N1CCN(Cc2ccc3c(c2)OCO3)CC1`
0

Now the molecule `COC(=O)[C@H]1[C@H]2C[C@H]3c4[nH]c5ccccc5c4CCN3C[C@H]2CC[C@@H]1O`
0

Now the molecule `CC(=O)Oc1ccc(C(=C2CCCCC2)c2ccc(OC(C)=O)cc2)cc1`
0

Now the molecule `C[N+]1(CCCCC[N+]2(C)CCCC2)CCCC1`
0

Now the molecule CC(Cc1cccc(C(F)(F)F)c1)NCCOC(=O)c1ccccc1 (stereo not drawn)
0

###

Test system: CP262
Assay remarks: qHTS profiling for inhibitors of Plasmodium falciparum proliferation (AID 504749); also: nearly all actives have a fitted effect of over 60% in size
Condition: P. falciparum in erythrocytes, SYBR Green DNA, 72 h; series mostly up to 28.7 µM
Results filed as inconclusive are left out. Activity calls are given as the source filed them. The call rests on the fitted dose curve; in most records, active means well fitted inhibition curve with a large enough effect; inconclusive means small, poorly fitted or top-dose-only effect; inactive means flat fitted curve, though single readings scatter.
Just give me one of these, please: active, inactive

Look up the recorded call for `CC(=O)Oc1ccc(C(c2ccc(OC(C)=O)cc2)c2ccccn2)cc1` in this test.
inactive

Now the molecule `CC(C)NC[C@@H](O)COc1cccc2ccccc12`
inactive

Now the molecule `COC1=CC(=O)C[C@@H](C)[C@]12Oc1c(Cl)c(OC)cc(OC)c1C2=O`
inactive

Now the molecule `COc1ccc(/C=C/C(=O)c2ccc(OC)cc2OC)cc1`
active

Now the molecule CC(O)C(=O)O (stereo unspecified)
inactive

Now the molecule `CCCOC(C(=O)OC1CCN(C)CC1)(c1ccccc1)c1ccccc1`
inactive

Now the molecule `CCOC(=O)n1ccn(C)c1=S`
inactive

Now the molecule `CCOc1ccc(Cc2nccc3cc(OCC)c(OCC)cc23)cc1OCC`
inactive

Now the molecule `C[C@@H]1C[C@H]2[C@@H]3CCC4=CC(=O)C=C[C@]4(C)[C@@]3(F)[C@@H](O)C[C@]2(C)[C@H]1C(=O)CO`
inactive

Now the molecule `CN(C(=O)CN(CCO)CC(=O)N(C)C(C)(C)Cc1ccccc1)C(C)(C)Cc1ccccc1`
inactive

Now the molecule `Cc1c(C(C)C)c(=O)n(-c2ccccc2)n1C`
inactive

###

Tested on: KB-3-1
Assay remarks: Cytotoxic Profiling of Annotated Libraries Using Quantitative High-Throughput Screening (AID 1296008); also: nearly all actives have a fitted effect of over 60% in size; as to max response: % is scaled to controls: 0 for no effect and ±100 for the full control effect
Condition: Five cell lines viability, CellTiter-Glo ATP luminescence, 48-72 h; hits give low values
Inconclusive results are not listed.
Could you please report measured max response for the items listed next?
Answer with a number only, understood to be in %.

KB-3-1 / max response / `CCCCCCCCCCCCCCCC[N+](C)(C)CCN(Cc1ccc(OC)cc1)c1ncccn1` : value?
-4.99

Now the molecule `CC(C)(C)CC(C)(C)c1ccc(O)c(Cc2ccc(Cl)cc2Cl)c1`
-6.63

Now the molecule `CN(C)CC/C=C1\c2ccccc2Sc2ccc(Cl)cc21`
-2.56

Now the molecule `Oc1cc(O)c2c(c1)O[C@H](c1ccc(O)c(O)c1)[C@H](O)C2`
-0.959

Now the molecule NC[C@H]1O[C@H](O[C@H]2[C@H](O[C@@H]3O[C@H](CO)[C@@H](O)[C@H]3O)C(O)[C@H](N)C[C@@H]2N)[C@H](N)[C@@H](O)[C@@H]1O (stereo not given in full)
-2.19

###

Test system: DIV30
Assay remarks: qHTS profiling for inhibitors of Plasmodium falciparum proliferation (AID 504749); also: nearly all actives have a fitted effect of over 60% in size
Condition: P. falciparum in erythrocytes, SYBR Green DNA, 72 h; series mostly up to 28.7 µM
Results filed as inconclusive are left out. Activity calls are given as the source filed them. Calls follow the shape of the dose curve; as a rule, active = well fitted inhibition curve with a large enough effect; inconclusive = small, poorly fitted or top-dose-only effect; inactive = flat fitted curve, though single readings scatter.
Just give me one of these, please: active, inactive

Look up the recorded call for `COc1cccc2c1C(=O)c1c(O)c3c(c(O)c1C2=O)C[C@@](O)(C(C)=O)C[C@@H]3O[C@H]1C[C@H](N)[C@H](O)[C@H](C)O1` in this test.
active

Now the compound `C[C@]12CC[C@@H]3c4ccc(O)cc4CC[C@H]3[C@@H]1CC[C@@H]2O`
inactive

Now the compound `C#C[C@]1(OC(C)=O)CC[C@H]2[C@@H]3CCC4=C[C@@H](OC(C)=O)CC[C@@H]4[C@H]3CC[C@@]21C`
inactive

Now the compound `CCOC(=O)c1cccc(N)c1`
active

Now the compound `O=c1ccc2ccccc2o1`
inactive

Now the compound `COc1ccc(C2C(=O)c3ccccc3C2=O)cc1`
inactive

Now the compound `Cc1cc(N)c2cc(NC(=O)Nc3ccc4nc(C)cc(N)c4c3)ccc2n1`
active

Now the compound `CCN1CCCC1=O`
inactive

Now the compound NC(CS)C(=O)O (centres undefined)
active

Now the compound `CC(=O)c1ccc2c(c1)N(CCCN1CCC(CCO)CC1)c1ccccc1S2`
inactive

Now the compound `C#C[C@]1(O)CC[C@H]2[C@@H]3CCc4cc(OC5CCCC5)ccc4[C@H]3CC[C@@]21C`
inactive

Now the compound `O=C(Nc1ccc(Oc2ccc(Cl)cc2)c(Cl)c1)c1cc(I)cc(I)c1O`
inactive

Now the compound `CCCCOc1cc(C(=O)NCCN(CC)CC)c2ccccc2n1`
inactive

Now the compound `COC1=CC(=O)C[C@@H](C)[C@]12Oc1c(Cl)c(OC)cc(OC)c1C2=O`
inactive

Now the compound `CCCCCCCCCCCCCCCC[N+](C)(C)CC`
active

Now the compound `COC(=O)[C@H]1[C@H]2C[C@H]3c4[nH]c5ccccc5c4CCN3C[C@H]2CC[C@@H]1O`
inactive

Now the compound `NCCC(O)(P(=O)(O)O)P(=O)(O)O`
inactive

Now the compound `OCc1ccccc1O`
inactive

Now the compound `CC(C)(C(=O)c1cccnc1)c1cccnc1`
inactive

Now the compound CC(O)C(=O)O (centres undefined)
inactive

Now the compound `CN(C(=O)CN(CCO)CC(=O)N(C)C(C)(C)Cc1ccccc1)C(C)(C)Cc1ccccc1`
inactive

Now the compound `Cc1c(C)n(CCN(C)C)c2ccc(C(=O)OCCN(C)C)cc12`
inactive

Now the compound `CN1CCC[C@@H]1c1cccnc1`
inactive

Now the compound `CC(=O)Oc1ccc(C(c2ccc(OC(C)=O)cc2)c2ccccn2)cc1`
inactive

###

System: NIH3T3
Assay remarks: Cytotoxic Profiling of Annotated Libraries Using Quantitative High-Throughput Screening (AID 1296008); also: nearly all actives have a fitted effect of over 60% in size
Condition: Five cell lines viability, CellTiter-Glo ATP luminescence, 48-72 h
Inconclusive results are not listed. The source made the active and inactive calls. Calls follow the shape of the dose curve; as a rule, active = well fitted inhibition curve with a large enough effect; inconclusive = small, poorly fitted or top-dose-only effect; inactive = flat fitted curve, though single readings scatter.
Just give me one of these, please: TRUE for active, FALSE for inactive

Look up the recorded call for NC[C@H]1O[C@H](O[C@H]2[C@H](O[C@@H]3O[C@H](CO)[C@@H](O)[C@H]3O)C(O)[C@H](N)C[C@@H]2N)[C@H](N)[C@@H](O)[C@@H]1O (some centres undefined) in this test.
FALSE

Now the molecule `CC(=O)O[C@]1(C(C)=O)CC[C@H]2[C@@H]3C[C@H](C)C4=CC(=O)CC[C@]4(C)[C@H]3CC[C@@]21C`
FALSE

Now the molecule `COC(=O)[C@@H]1CC2=CC(=O)CC[C@]2(C)[C@@]23O[C@@H]2C[C@@]2(C)[C@@H](CC[C@@]24CCC(=O)O4)[C@H]13`
FALSE

Now the molecule `COc1c(C)c2c(c(O)c1C/C=C(\C)CCC(=O)O)C(=O)OC2`
TRUE

Now the molecule `C[C@]12C=CC(=O)C=C1CC[C@@H]1[C@@H]2[C@@H](O)C[C@@]2(C)[C@H]1CC[C@]2(O)C(=O)CO`
FALSE

Now the molecule `CC(=O)[C@H]1CC[C@H]2[C@@H]3C[C@H](C)C4=CC(=O)CC[C@]4(C)[C@H]3[C@@H](O)C[C@]12C`
FALSE

Now the molecule Cc1ccc(C(=O)C(C)CN2CCCCC2)cc1 (centres undefined)
FALSE

Now the molecule `O=C1c2ccccc2C(=O)C1c1ccccc1`
FALSE

Now the molecule Cc1ccccc1C(=O)Nc1ccc(C(=O)N2CCCC(N(C)C)c3ccccc32)cc1 (centres undefined)
TRUE

Now the molecule `COc1cccc2c1C(=O)c1c(O)c3c(c(O)c1C2=O)C[C@@](O)(C(=O)CO)C[C@@H]3O[C@H]1C[C@H](N)[C@H](O)[C@H](C)O1`
TRUE

Now the molecule CN1[C@@H]2CC[C@H]1CC(OC(=O)c1c[nH]c3ccccc13)C2 (some centres undefined)
FALSE

Now the molecule `COCc1c(C(C)C)nc(C(C)C)c(/C=C/[C@@H](O)C[C@@H](O)CC(=O)O)c1-c1ccc(F)cc1`
TRUE

Now the molecule `Cc1c(C)n(CCN(C)C)c2ccc(C(=O)OCCN(C)C)cc12`
TRUE

Now the molecule `Cc1c(N(C)CS(=O)(=O)O)c(=O)n(-c2ccccc2)n1C`
FALSE

Now the molecule `OC[C@H]1O[C@H](O[C@]2(CCl)O[C@H](CCl)[C@@H](O)[C@@H]2O)[C@H](O)[C@@H](O)[C@H]1Cl`
FALSE

Now the molecule `CCCCCC=CCC=CCCCCCCCC(=O)OCC`
FALSE

Now the molecule `COc1cc2c(cc1OC)[C@@H]1CC(=O)[C@@H](CC(C)C)CN1CC2`
FALSE

Now the molecule `CC(=O)Nc1c(I)cc(I)c(C(=O)O)c1I`
FALSE

Now the molecule `OC[C@H]1O[C@@H](n2cnc3c(=S)nc[nH]c32)[C@H](O)[C@@H]1O`
TRUE
